Reference source: ChEMBL document CHEMBL5291721

# AC50 measurements, system: Neuropeptide Y receptor type 1 (Homo sapiens); further: assay procedure not described here
# Sequence (P25929 whole entry): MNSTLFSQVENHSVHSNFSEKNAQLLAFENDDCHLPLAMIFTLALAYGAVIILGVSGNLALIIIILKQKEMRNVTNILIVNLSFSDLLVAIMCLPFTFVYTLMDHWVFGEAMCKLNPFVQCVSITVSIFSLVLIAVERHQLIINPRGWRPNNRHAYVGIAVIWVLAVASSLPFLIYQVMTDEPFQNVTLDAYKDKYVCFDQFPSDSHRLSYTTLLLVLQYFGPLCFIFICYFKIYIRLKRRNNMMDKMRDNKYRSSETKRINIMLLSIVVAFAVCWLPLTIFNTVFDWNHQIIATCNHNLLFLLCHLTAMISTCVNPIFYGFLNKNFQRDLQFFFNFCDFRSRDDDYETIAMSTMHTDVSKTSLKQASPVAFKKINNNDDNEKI

Retrieve AC50 on Neuropeptide Y receptor type 1 (Homo sapiens); query `COc1ccc2c(c1)c(CC(=O)OCC(=O)O)c(C)n2C(=O)c1ccc(Cl)cc1` > 30 µM

Retrieve AC50 on Neuropeptide Y receptor type 1 (Homo sapiens); query `CCCOc1ccc(C(=O)OCCN(CC)CC)cc1N` > 30 µM

====

target: Alpha-2A adrenergic receptor (Homo sapiens, UniProt P08913); format: functional, cell-based; further: assay procedure not described here
Sequence (P08913 whole entry): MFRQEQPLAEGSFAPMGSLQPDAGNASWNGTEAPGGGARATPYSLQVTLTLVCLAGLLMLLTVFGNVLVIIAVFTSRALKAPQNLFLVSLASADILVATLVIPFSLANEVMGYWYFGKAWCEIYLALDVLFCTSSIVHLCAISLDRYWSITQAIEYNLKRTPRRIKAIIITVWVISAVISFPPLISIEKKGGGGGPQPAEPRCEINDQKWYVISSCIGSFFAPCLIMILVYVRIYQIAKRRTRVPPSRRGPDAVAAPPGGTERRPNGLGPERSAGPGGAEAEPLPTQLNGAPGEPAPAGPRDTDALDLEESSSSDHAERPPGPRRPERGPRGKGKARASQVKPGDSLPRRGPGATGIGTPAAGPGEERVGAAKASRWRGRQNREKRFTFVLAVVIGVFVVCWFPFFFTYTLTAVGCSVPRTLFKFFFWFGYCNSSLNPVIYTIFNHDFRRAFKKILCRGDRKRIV
Property: AC50

The following molecules have reported results that may help.
INSERT INTO assay_data (molecule, observed_value) VALUES
  ('NC(=O)c1cnccn1 [PYRAZINAMIDE]', '> 30 µM'),
  ('CC(C)(C(=O)c1cccnc1)c1cccnc1 [METYRAPONE]', '> 10 µM'),
  ('CC[C@]1(O)C[C@@H]2CN(CCc3c([nH]c4ccccc34)[C@@](C(=O)OC)(c3cc4c(cc3OC)N(C)[C@H]3[C@@](O)(C(N)=O)[C@H](O)[C@]5(CC)C=CCN6CC[C@]43[C@@H]65)C2)C1 [VINDESINE]', '> 30 µM');

Retrieve AC50 on Alpha-2A adrenergic receptor (Homo sapiens, UniProt P08913); query N[C@@H](CSCC(=O)O)C(=O)O [CARBOCYSTEINE] > 30 µM

Retrieve AC50 on Alpha-2A adrenergic receptor (Homo sapiens, UniProt P08913); query C1=Cc2cccc(OCC3CNCCO3)c2C1 (centres undefined) [INDELOXAZINE] > 30 µM

Retrieve AC50 on Alpha-2A adrenergic receptor (Homo sapiens, UniProt P08913); query CCCCC(C)(O)C/C=C/[C@H]1[C@H](O)CC(=O)[C@@H]1CCCCCCC(=O)OC (some centres undefined) [MISOPROSTOL] > 30 µM

Retrieve AC50 on Alpha-2A adrenergic receptor (Homo sapiens, UniProt P08913); query CCc1ccc(CCOc2ccc(CC3SC(=O)NC3=O)cc2)nc1 (centres undefined) [PIOGLITAZONE] > 10 µM

Retrieve AC50 on Alpha-2A adrenergic receptor (Homo sapiens, UniProt P08913); query CC(=O)N[C@H]1[C@H]([C@H](O)[C@H](O)CO)OC(C(=O)O)=C[C@@H]1N=C(N)N [ZANAMIVIR] > 10 µM

Retrieve AC50 on Alpha-2A adrenergic receptor (Homo sapiens, UniProt P08913); query CC(Cc1ccccc1)NCCC(c1ccccc1)c1ccccc1 (centres undefined) [PRENYLAMINE] > 10 µM

Retrieve AC50 on Alpha-2A adrenergic receptor (Homo sapiens, UniProt P08913); query `CCOC(=O)[C@H](CCc1ccccc1)N[C@@H](C)C(=O)N1CCC[C@H]1C(=O)O` > 10 µM

Retrieve AC50 on Alpha-2A adrenergic receptor (Homo sapiens, UniProt P08913); query COC(=O)C1=C(C)NC(C)=C(C(=O)OC(C)C)C1c1cccc2nonc12 (centres undefined) [ISRADIPINE] > 10 µM

====

# AC50 measurements, system: Growth hormone secretagogue receptor type 1 (Homo sapiens, UniProt Q92847); further: assay procedure not described here
# Sequence (Q92847 whole entry): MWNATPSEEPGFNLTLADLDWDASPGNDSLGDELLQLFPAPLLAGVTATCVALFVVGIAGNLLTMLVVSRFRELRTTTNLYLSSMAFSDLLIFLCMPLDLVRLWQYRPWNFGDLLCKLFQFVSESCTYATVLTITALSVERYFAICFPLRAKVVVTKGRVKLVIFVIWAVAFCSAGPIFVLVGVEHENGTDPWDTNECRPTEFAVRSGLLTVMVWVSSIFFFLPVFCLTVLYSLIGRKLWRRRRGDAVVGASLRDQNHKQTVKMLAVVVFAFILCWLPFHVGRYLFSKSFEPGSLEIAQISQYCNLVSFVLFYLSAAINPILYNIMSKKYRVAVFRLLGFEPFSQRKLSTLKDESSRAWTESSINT

INSERT INTO results (compound, observed_value) VALUES
  ('O=C(O)Cc1cn(-c2ccccc2)nc1-c1ccc(Cl)cc1 [LONAZOLAC]', '> 30 µM'),
  ('CN1CCCN=C1COC(=O)C(O)(c1ccccc1)C1CCCCC1 (stereo not given) [OXYPHENCYCLIMINE]', '> 10 µM'),
  ('CN1C(=O)CC(c2ccccc2)C1=O (stereo not given) [PHENSUXIMIDE]', '> 10 µM');

Retrieve AC50 on Growth hormone secretagogue receptor type 1 (Homo sapiens, UniProt Q92847); query C#CCN(C)[C@H](C)Cc1ccccc1 [SELEGILINE] > 10 µM

Retrieve AC50 on Growth hormone secretagogue receptor type 1 (Homo sapiens, UniProt Q92847); query CC(=O)NS(=O)(=O)c1ccc(N)cc1 [SULFACETAMIDE] > 10 µM

Retrieve AC50 on Growth hormone secretagogue receptor type 1 (Homo sapiens, UniProt Q92847); query CC(C)C(=O)OCC(=O)[C@@]12O[C@H](C3CCCCC3)O[C@@H]1C[C@H]1[C@@H]3CCC4=CC(=O)C=C[C@]4(C)[C@H]3[C@@H](O)C[C@@]12C [CICLESONIDE] > 10 µM

Retrieve AC50 on Growth hormone secretagogue receptor type 1 (Homo sapiens, UniProt Q92847); query CC[C@]1(O)C[C@@H]2CN(CCc3c([nH]c4ccccc34)[C@@](C(=O)OC)(c3cc4c(cc3OC)N(C)[C@H]3[C@@](O)(C(N)=O)[C@H](O)[C@]5(CC)C=CCN6CC[C@]43[C@@H]65)C2)C1 [VINDESINE] 6.5 µM

Retrieve AC50 on Growth hormone secretagogue receptor type 1 (Homo sapiens, UniProt Q92847); query O=C1CN=C(c2ccccc2)c2cc(Cl)ccc2N1CC(F)(F)F [HALAZEPAM] > 30 µM

Retrieve AC50 on Growth hormone secretagogue receptor type 1 (Homo sapiens, UniProt Q92847); query O=C(Cn1ccnc1[N+](=O)[O-])NCc1ccccc1 [BENZNIDAZOLE] > 30 µM

Retrieve AC50 on Growth hormone secretagogue receptor type 1 (Homo sapiens, UniProt Q92847); query NC(=O)c1ncn([C@@H]2O[C@H](CO)[C@@H](O)[C@H]2O)c1O [MIZORIBINE] > 30 µM

Retrieve AC50 on Growth hormone secretagogue receptor type 1 (Homo sapiens, UniProt Q92847); query C[C@]12CCC(=O)C=C1CC[C@@H]1[C@@H]2CC[C@@]2(C)[C@H]1CC[C@]2(C)O [METHYLTESTOSTERONE] > 30 µM

Retrieve AC50 on Growth hormone secretagogue receptor type 1 (Homo sapiens, UniProt Q92847); query NC(N)=Nc1nc(CSCCC(N)=NS(N)(=O)=O)cs1 [FAMOTIDINE] > 30 µM

Retrieve AC50 on Growth hormone secretagogue receptor type 1 (Homo sapiens, UniProt Q92847); query `COC(=O)N[C@H](C(=O)N1CCC[C@H]1c1nc(-c2ccc(-c3ccc(-c4c[nH]c([C@@H]5CCCN5C(=O)[C@@H](NC(=O)OC)C(C)C)n4)cc3)cc2)c[nH]1)C(C)C` > 30 µM
